- Tested on: HCC-2998 colon
- Assay Overview: NCI-60 one-dose screen, 48 h (100 = growth as untreated, 0 = no growth, -100 = all killed)
- Measurement Setup: 10 µM unless noted
Compounds without any hit were thinned out: in the full panel of roughly 83,000, 20% have a hit.
This section presents compounds with their documented growth values.
Value Kind: growth (%)

Compound | Endpoint Result
Cc1cccc(NC(=O)c2sc3nc4c(cc3c2N)CCCC4)c1 | 70.6
NC(=O)c1cccc(N2Cc3ccccc3OC3=C2C(=O)c2c(O)ccc(O)c2C3=O)c1 | -21.1
COc1cc(C2C=C(C)N=C3SC(C)=NN32)cc(OC)c1OC (configuration not stated) | 107
C[N+](C)(C)c1ccc(CC2c3ccccc3-c3ccccc32)cc1 | 88.8
CCC(C)NCC(=O)O (configuration not stated) | 101
COC(=O)c1ccc(C)cc1 | 109
CN1CCN(CCCOc2ccc3nc(Nc4ccc(C(F)(F)F)c(Cl)c4)ccc3c2)CC1 | -71.1

* * *

- Test system: HS 578T breast
- Assay Overview: NCI-60 one-dose screen, 48 h
- Measurement Setup: 10 µM unless noted
About 83,000 compounds went through this panel and 20% of them were active in at least one assay; those are over-represented in the sample as a whole. Calls of active or inactive are those of the source. How the source made its calls: active means growth percent below 10; inactive means the rest.
Outcomes: 1.0 (active), 0.0 (inactive)

Compound | Label
O=C(O)Cc1ccc2c(c1)Cc1cccnc1O2 | 0.0
COc1ccc(-n2c(C)cc(-c3ccccc3)c2C)cc1 | 0.0
O=C1C2=C(C(=O)c3c(O)ccc(O)c31)N(c1cccnc1)Cc1ccccc1O2 | 0.0
CCC(=O)Nc1ccccc1C#C/C=C\C#Cc1ccccc1SC | 1.0
Cc1cc(Nc2nc(C(=O)Nc3ccccc3)nc3ccccc23)n[nH]1 | 0.0
O=C(N/N=C/c1c(Cl)cccc1Cl)c1ccccc1Nc1ccnc(C(F)(F)F)c1 | 0.0
CCCS(=O)(=O)c1nc(NC2CC2)cc(-c2ccc3c(ccn3C3CC(C)(C)NC(C)(C)C3)c2)n1 | 1.0
CN(C)C1CCC(NC2=CC(=O)C=CC2=O)CC1 (stereo not given) | 0.0
COc1ccc(C(=O)N2CCN(C(=O)c3cc(OC)c(OC)c(OC)c3)CC2)cc1OCCCCOc1cc2c(cc1OC)C(=O)N1CCC[C@H]1C=N2 | 1.0
Cc1cccc(NC(=O)c2sc3nc4c(cc3c2N)CCCC4)c1 | 0.0

* * *

- Test system: HCC-2998 colon
- Assay Overview: NCI-60 one-dose screen, 48 h (100 = growth as untreated, 0 = no growth, -100 = all killed)
- Measurement Setup: 10 µM unless noted
Compounds without any hit were thinned out: in the full panel of roughly 83,000, 20% have a hit.

Smiles String | growth [%]
Nc1c(C(=O)Nc2cccc(C(F)(F)F)c2)sc2nc3c(cc12)CCCCCC3 | 37.1
COc1ccc(-c2nc3sccn3c2-c2ccnc(NCCCNS(=O)(=O)c3ccc4ccccc4c3)n2)cc1 | 84.1
C=CCn1c(C)nc2ccc(Nc3nc(Nc4ccc(F)cc4)nc4ccccc34)cc21 | 80.6

* * *

- Test system: UACC-62 melanoma
- Assay Overview: NCI-60 one-dose screen, 48 h
- Measurement Setup: 10 µM unless noted
This is part of a sample that, as a whole, favours compounds with a hit. Of some 83,000 tested, about 20% had one in any assay. Calls of active or inactive are those of the source. The calls were made as follows: active = growth percent below 10; inactive = the rest.
Classes used: active, inactive

Molecule | Target | Label
C[N+](C)(C)c1ccc(CC2c3ccccc3-c3ccccc32)cc1 | UACC-62 melanoma | inactive
COc1cc2oc(-c3cccc(NC(=O)Nc4ccc5c(c4)OCO5)c3)cc(=O)c2c(OC)c1OC | UACC-62 melanoma | inactive
O=C1Nc2cc(Cl)ccc2/C1=C/c1ccc(N2CCOCC2)s1 | UACC-62 melanoma | inactive
O=C(CCCn1c2c(sc3ccccc32)c(=O)n2nnc(-c3ccccc3)c12)NCCc1cnc[nH]1 | UACC-62 melanoma | active
c1ccc2nc(-c3ccc4ccccc4n3)ccc2c1 | UACC-62 melanoma | inactive
COc1cc(-n2nc(C(=O)Nc3ccc(C(=O)O)cc3)nc2-c2ccccc2)cc(OC)c1OC | UACC-62 melanoma | inactive
CSc1ccccc1C#C/C=C\C#Cc1ccccc1N1CCCC1=O | UACC-62 melanoma | inactive
CCN(CC)CCCNc1nc(C)cc(Nc2ccc3nc(C)cc(N)c3c2)n1 | UACC-62 melanoma | inactive
O=C(NNC(=S)Nc1ccccc1)c1ccccn1 | UACC-62 melanoma | active
COc1ccc(C(=O)c2cc(OC)c(OC)c(OC)c2)cc1/C=C/C(=O)c1ccc(O)cc1 | UACC-62 melanoma | inactive
Nc1c(C(=O)Nc2c(Cl)cccc2Cl)sc2nc3c(cc12)CCCCC3 | UACC-62 melanoma | inactive
Cc1ccc(C2=NN(c3ccc(S(=O)(=O)NC(=O)NCc4ccccc4)cc3)C(c3ccc(N(C)C)cc3)C2)c(C)c1 (centres undefined) | UACC-62 melanoma | inactive
O=C(/C=C/c1ccccc1)n1c(-c2ccc(Cl)cc2)nc2ccccc21 | UACC-62 melanoma | active
COc1ccc(/C=C(\C#N)c2ccc([N+](=O)[O-])cc2)c2ccccc12 | UACC-62 melanoma | inactive

* * *

- System: NCI-H23 lung
- Assay Overview: NCI-60 one-dose screen, 48 h (100 = growth as untreated, 0 = no growth, -100 = all killed)
- Measurement Setup: 10 µM unless noted
The panel holds about 83,000 compounds, 20% with a hit somewhere; the sample as a whole holds those more often.
t if growth is below 90%. f if not; exact matches included in f.

Compound | Label
O=C(Nc1ccc(Br)c(Cl)c1)c1cc(F)ccc1O | t
O=C(OCCCCOC(=O)n1cnc2ccccc21)n1cnc2ccccc21 | f
O=C(c1ccccc1)C(Cl)C(Cl)c1ccccc1 (stereo not given) | t
NS(=O)(=O)c1ccc(NCC(=O)Nc2ccc(-c3nc4ccccc4s3)cc2)cc1 | t
COc1c(NC[C@H]2OC(O)[C@H](O)[C@@H](O)[C@@H]2O)c(=O)c1=O (stereo not given in full) | f
CN(C)C1CCC(NC2=CC(=O)C=CC2=O)CC1 (stereo not given) | f
O=C1NCC(c2cc3ccccc3[nH]c2=O)Nc2ccccc21 (stereo not given) | f
O=C(COc1ccccc1)N1N=C(c2ccc(Cl)cc2)CC1c1c[nH]c2ccccc12 (stereo not given) | t
Cc1ccc(S(=O)(=O)OCC(=O)Nc2ccc(C(=O)O)c(O)c2)cc1 | f
O=c1oc2cc(OS(=O)(=O)c3ccccc3)c(Cl)cc2c2c1CCCCCC2 | t
Nc1c(C(=O)Nc2cccc(C(F)(F)F)c2)sc2nc3c(cc12)CCCCCC3 | t
CC(=O)Nc1nc(C(=O)N2N=C(C)/C(=C/c3ccc(Cl)cc3)C2=O)cs1 | f
O=S(=O)(NCCNc1nccc(-c2c(-c3ccccc3)nc3sccn23)n1)c1ccc(O)cc1 | t
COc1cc(Cn2c(SCC(=O)Nc3ccc(Cl)cc3)nc3ccccc3c2=O)cc(OC)c1OC | t
c1ccc(CCn2nnc3c(Nc4ccc(N5CCOCC5)cc4)ncnc32)cc1 | f
CCOC(=O)C1=C(C)NC(=O)NC1c1ccc(OCC(=O)N/N=C/c2ccc(Cl)cc2)cc1 (stereo not given) | f
CCN(CC)CCCNc1nc(C)cc(Nc2ccc3nc(C)cc(N)c3c2)n1 | f
O=C(CN1CCOCC1)Nc1ccc(-c2nc3ccccc3s2)cc1 | f
COc1ccc(C2SCC(=O)N2NC(=O)c2ccc(NC(=O)c3ccccn3)cc2)cc1OC (stereo not given) | f
CN1C(=O)[C@H]2c3c1cccc3[C@@]13NC(=O)O[C@H]1[C@H](CCC3(C)C)C2(C)C | f
O=S(=O)(NCCNc1cc(-c2cn(-c3ccccc3)nc2-c2ccccc2)ccn1)c1cccc2ccccc12 | t
Cn1c(C(N)=O)cc2c1-c1nc(NC3CCCCC3)ncc1CCC2 | f
O=c1oc2c([nH]c3ccc4ccccc4c32)c2ccccc12 | f
CCCCCCC[C@@H](O)CC(=O)N[C@H](CCCCN)C(=O)N[C@H](Cc1c[nH]c2ccccc12)C(=O)NC(CCCCN)C(=O)N[C@H](CC(C)C)C(=O)N[C@H](Cc1ccccc1)C(=O)N[C@H](CCCCN)C(=O)N[C@H](CCCCN)C(=O)N[C@H](CC(C)C)C(=O)N1CCCC1C(=O)N[C@H](CCCCN)C(=O)N[C@H](Cc1ccccc1)C(=O)N[C@H](CC(C)C)C(=O)N[C@H](Cc1c[nH]cn1)C(=O)N[C@H](CC(C)C)C(=O)N[C@H](C)C(=O)N[C@H](CCCCN)C(=O)N[C@H](CCCCN)C(=O)N[C@H](Cc1ccccc1)C(=O)O (stereo not given in full) | t

* * *

Form field: growth (one value per entry).
- Tested on: UACC-62 melanoma
- Assay Overview: NCI-60 one-dose screen, 48 h (100 = growth as untreated, 0 = no growth, -100 = all killed)
- Measurement Setup: 10 µM unless noted
About 83,000 compounds went through this panel and 20% of them were active in at least one assay; those are over-represented in the sample as a whole.
Value Kind: growth (%)

Smiles String | Endpoint Result
COc1ccc(/C(=N/O)c2cc(F)c(F)c(OC)c2F)cc1O | 29.8
O=C(O)c1ccc(-n2c(=O)c3ccccc3c3ccccc3c2=O)cc1 | 105
CNC(C)=O | 105
COc1ccc(S(=O)(=O)Nc2cc(/C=C\c3cc(OC)c(OC)c(OC)c3)cc(OC)c2OC)cc1OC | 37.3
